Each recorded value in this set is attributed to the kinase profiling compilation of Christmann-Franck et al. (2016).

The entries below are paired with their reported residual activity.
biological target: CDC42BPB (human) (UniProt Q9Y5S2); assay: radiometric filter-binding kinase assay, Kinase HotSpot; settings: compound 0.5 µM; ATP 10 µM
Sequence (Q9Y5S2 whole entry, looked up): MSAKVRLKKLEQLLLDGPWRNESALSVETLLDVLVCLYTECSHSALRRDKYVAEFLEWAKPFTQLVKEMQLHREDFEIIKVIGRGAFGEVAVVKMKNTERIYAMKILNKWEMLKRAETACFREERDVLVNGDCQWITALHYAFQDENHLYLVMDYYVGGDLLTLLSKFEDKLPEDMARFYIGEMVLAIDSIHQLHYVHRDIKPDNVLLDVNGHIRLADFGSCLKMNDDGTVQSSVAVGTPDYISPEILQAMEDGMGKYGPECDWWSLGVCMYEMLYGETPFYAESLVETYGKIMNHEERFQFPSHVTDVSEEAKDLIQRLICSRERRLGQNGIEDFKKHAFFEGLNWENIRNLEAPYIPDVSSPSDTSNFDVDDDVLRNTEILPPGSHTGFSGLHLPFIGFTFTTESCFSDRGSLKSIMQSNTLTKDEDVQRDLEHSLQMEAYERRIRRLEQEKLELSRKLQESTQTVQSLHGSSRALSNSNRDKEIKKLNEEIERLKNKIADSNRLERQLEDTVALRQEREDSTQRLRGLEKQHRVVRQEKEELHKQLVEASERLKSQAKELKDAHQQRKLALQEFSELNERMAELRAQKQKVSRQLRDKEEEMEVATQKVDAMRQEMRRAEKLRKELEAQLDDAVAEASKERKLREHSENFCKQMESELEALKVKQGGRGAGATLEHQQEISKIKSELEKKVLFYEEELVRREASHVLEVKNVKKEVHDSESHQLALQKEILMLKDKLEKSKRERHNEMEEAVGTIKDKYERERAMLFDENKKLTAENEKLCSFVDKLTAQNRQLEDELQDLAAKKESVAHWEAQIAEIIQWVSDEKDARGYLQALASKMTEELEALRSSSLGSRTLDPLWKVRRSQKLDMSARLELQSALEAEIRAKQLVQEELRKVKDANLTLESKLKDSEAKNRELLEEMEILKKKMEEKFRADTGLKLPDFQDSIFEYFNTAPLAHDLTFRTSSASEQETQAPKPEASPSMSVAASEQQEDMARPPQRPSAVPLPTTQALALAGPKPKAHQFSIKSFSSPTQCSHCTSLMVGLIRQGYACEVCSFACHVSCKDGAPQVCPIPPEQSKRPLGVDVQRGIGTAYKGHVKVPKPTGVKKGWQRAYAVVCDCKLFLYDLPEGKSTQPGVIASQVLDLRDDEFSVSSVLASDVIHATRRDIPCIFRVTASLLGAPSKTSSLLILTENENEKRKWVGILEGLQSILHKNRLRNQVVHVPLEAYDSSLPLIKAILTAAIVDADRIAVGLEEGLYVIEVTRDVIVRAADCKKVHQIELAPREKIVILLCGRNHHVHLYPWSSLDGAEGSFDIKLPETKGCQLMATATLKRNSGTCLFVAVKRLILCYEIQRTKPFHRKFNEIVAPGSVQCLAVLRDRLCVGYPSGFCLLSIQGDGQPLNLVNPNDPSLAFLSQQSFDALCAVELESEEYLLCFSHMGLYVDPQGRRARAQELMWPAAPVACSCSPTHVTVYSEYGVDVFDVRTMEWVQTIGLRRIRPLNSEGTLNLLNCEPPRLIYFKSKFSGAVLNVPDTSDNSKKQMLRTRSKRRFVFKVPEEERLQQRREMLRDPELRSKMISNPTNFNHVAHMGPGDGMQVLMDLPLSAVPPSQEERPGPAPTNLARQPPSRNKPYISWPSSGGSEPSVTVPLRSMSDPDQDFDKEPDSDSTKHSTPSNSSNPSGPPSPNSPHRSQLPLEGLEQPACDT
# output: bare number, implied unit %

Consider the worked cases shown below.
| compound_structure | residual activity / % |
| --- | --- |
| CO[C@@H]1[C@H](N(C)C(=O)c2ccccc2)C[C@H]2O[C@]1(C)n1c3ccccc3c3c4c(c5c6ccccc6n2c5c31)C(=O)NC4 | 95.9 |
| c1ccc2c(-c3ccncc3)c[nH]c2c1 | 104 |
| COc1ccc(C(=O)Nc2sc3c(c2C(N)=O)CCCC3)cc1OC | 94.5 |

Prompt: Name the reported residual activity value associated with the compound "CC(C)(C)c1cc(C=C(C#N)C#N)cc(Br)c1O"
Response: 103

Prompt: Ok, now "O=C1NC(=O)c2c1c1c3ccccc3[nH]c1n1cncc21"
Response: 94.8

----------
molecular target: PNCK (human) (UniProt Q6P2M8); assay: radiometric filter-binding kinase assay, Kinase HotSpot; conditions: compound 0.5 µM; ATP 10 µM
Sequence (Q6P2M8 whole entry, looked up): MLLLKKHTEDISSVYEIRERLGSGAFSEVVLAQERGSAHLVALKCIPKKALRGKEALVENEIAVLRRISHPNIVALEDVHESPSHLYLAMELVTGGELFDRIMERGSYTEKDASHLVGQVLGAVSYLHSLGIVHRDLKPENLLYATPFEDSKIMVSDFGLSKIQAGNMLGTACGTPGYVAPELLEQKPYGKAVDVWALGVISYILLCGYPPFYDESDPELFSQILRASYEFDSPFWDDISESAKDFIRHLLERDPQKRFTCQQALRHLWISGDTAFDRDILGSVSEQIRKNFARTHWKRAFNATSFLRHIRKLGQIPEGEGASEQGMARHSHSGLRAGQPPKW
property_label: residual activity (%)
# output: bare number, implied unit %

| compound_structure | residual activity (%) |
| --- | --- |
| O=C(c1cc2cc(O)ccc2[nH]1)c1cc2cc(O)ccc2[nH]1 | 105 |
| COc1ccc2c(c1)c(C1=C(c3c[nH]c4ccccc34)C(=O)NC1=O)cn2CCCN(C)C | 103 |
| COc1ccc2c(c1)/C(=C/c1cnc[nH]1)C(O)=N2 | 86.3 |

Prompt: Name the reported residual activity value associated with the molecule "COc1cc2ncnc(Nc3ccc(OCc4ccccc4)cc3)c2cc1OC"
Response: 99

Prompt: Ok, now "O=C1NC(=O)c2c1c1c3ccccc3[nH]c1n1cncc21"
Response: 105

Prompt: Ok, now "Cc1nc(-c2ccccc2)c(-c2ccncc2)o1"
Response: 96.6

Prompt: Ok, now "Ic1cccc(CSc2nnc(-c3ccncc3)o2)c1"
Response: 101

Prompt: Ok, now "CO[C@@H]1[C@H](N(C)C(=O)c2ccccc2)C[C@H]2O[C@]1(C)n1c3ccccc3c3c4c(c5c6ccccc6n2c5c31)C(=O)NC4"
Response: 92.9

Prompt: Ok, now "CN(C)c1ccc(/C=C2\C(=O)Nc3ccccc32)cc1"
Response: 102

----------
target: STK38 (human); assay: radiometric filter-binding kinase assay, Kinase HotSpot; settings: compound 0.5 µM; ATP 10 µM
The entries below are paired with their reported residual activity.

Consider the worked cases shown below.
| compound_structure | residual activity |
| --- | --- |
| CO[C@@H]1[C@H](N(C)C(=O)c2ccccc2)C[C@H]2O[C@]1(C)n1c3ccccc3c3c4c(c5c6ccccc6n2c5c31)C(=O)NC4 | 83.8% |
| O=C1C(Cl)=C(N2C(=O)CCC2=O)C(=O)c2ccccc21 | 102% |
| COc1ccc(S(=O)(=O)N(CCO)c2ccccc2CN(C)C/C=C/c2ccc(Cl)cc2)cc1 | 98.3% |
| CS(=O)(=O)CCNCc1ccc(-c2ccc3ncnc(Nc4ccc(OCc5cccc(F)c5)c(Cl)c4)c3c2)o1 | 101% |
| N#C/C(=C\c1ccc(O)c(O)c1)C(=O)NCc1ccccc1 | 99.1% |
| COc1cc(Nc2c(C#N)cnc3cc(OCCCN4CCN(C)CC4)c(OC)cc23)c(Cl)cc1Cl | 85.1% |
| Cc1cccc(-c2nc(C(C)(C)C)[nH]c2-c2ccc3c(c2)OCO3)n1 | 91.7% |
| O=C1c2ccccc2-c2nc3nnnn3nc21 | 46.6% |
| Cc1cncc2cccc(S(=O)(=O)N3CCCN(C(=O)CN)C[C@H]3C)c12 | 97.1% |
| COc1cc2ncnc(Nc3ccc(Oc4ccccc4)cc3)c2cc1OC | 105% |

Prompt: Name the reported residual activity value associated with the compound "c1ccc2c(-c3ccncc3)c[nH]c2c1"
Response: 109%

Prompt: Ok, now "COc1ccc2c(c1)/C(=C/c1cnc[nH]1)C(O)=N2"
Response: 86.2%

Prompt: Ok, now "C[C@@H]1CCN(C(=O)CC#N)C[C@@H]1N(C)c1ncnc2[nH]ccc12"
Response: 95.7%

Prompt: Ok, now "Cc1nc(-c2ccccc2)c(-c2ccncc2)o1"
Response: 97.3%

Prompt: Ok, now "N#Cc1c[nH]c2c[nH]/c(=N\Cc3cccnc3)cc2/c1=N\c1ccc(F)c(Cl)c1"
Response: 93.9%

Prompt: Ok, now "Fc1ccc(-c2nc3n(c2-c2ccncc2)CCS3)cc1"
Response: 88%

Prompt: Ok, now "O=C1Nc2ccc(Br)cc2/C1=C\c1cc2c([nH]1)CCCC2"
Response: 80.1%

Prompt: Ok, now "CN(C)S(=O)(=O)c1ccc2c(c1)/C(=C/c1cc3c([nH]1)CCCC3)C(=O)N2"
Response: 94.6%

----------
target: PTK2B (human); test: radiometric filter-binding kinase assay, Kinase HotSpot; details: compound 0.5 µM; ATP 10 µM
The entries below are paired with their reported residual activity.
# output: bare number, implied unit %

Consider the worked cases shown below.
| compound_structure | residual activity [%] |
| --- | --- |
| Cc1cccc(-c2nc(C(C)(C)C)[nH]c2-c2ccc3c(c2)OCO3)n1 | 91.3 |
| COc1ccc(C(=O)Nc2sc3c(c2C(N)=O)CCCC3)cc1OC | 95.5 |
| O=C1NC(=O)c2c1c1c3ccccc3[nH]c1n1cncc21 | 70.1 |
| N#C/C(=C\c1ccc(O)c(O)c1)C(=O)NCc1ccccc1 | 92.6 |
| N#Cc1c[nH]c2c[nH]/c(=N\Cc3cccnc3)cc2/c1=N\c1ccc(F)c(Cl)c1 | 100 |

Prompt: Name the reported residual activity value associated with the molecule "CN(C)CCCn1cc(C2=C(c3c[nH]c4ccccc34)C(=O)NC2=O)c2ccccc21"
Response: 98.5

Prompt: Ok, now "COc1ccc(S(=O)(=O)N(CCO)c2ccccc2CN(C)C/C=C/c2ccc(Cl)cc2)cc1"
Response: 106

Prompt: Ok, now "Cn1c2ccccc2c2c3c(c4c5ccccc5n(CCC#N)c4c21)CNC3=O"
Response: 26.7

Prompt: Ok, now "O=C1Nc2ccc(Br)cc2/C1=C\c1cc2c([nH]1)CCCC2"
Response: 82.4

Prompt: Ok, now "CN(C)c1ccc(/C=C2\C(=O)Nc3ccccc32)cc1"
Response: 94.5

----------
molecular target: FGFR4 (human); assay: radiometric filter-binding kinase assay, Kinase HotSpot; conditions: compound 0.5 µM; ATP 10 µM
Is residual activity at least 90%? Then YES. If not, NO.

Example entries begin here.
| compound_structure | target | classification |
| --- | --- | --- |
| CO[C@@H]1[C@H](N(C)C(=O)c2ccccc2)C[C@H]2O[C@]1(C)n1c3ccccc3c3c4c(c5c6ccccc6n2c5c31)C(=O)NC4 | FGFR4 (human) | NO |
| C[C@@H]1CCN(C(=O)CC#N)C[C@@H]1N(C)c1ncnc2[nH]ccc12 | FGFR4 (human) | YES |
| O=C1c2ccccc2-c2nc3nnnn3nc21 | FGFR4 (human) | NO |
| Cc1nc(-c2ccccc2)c(-c2ccncc2)o1 | FGFR4 (human) | NO |

Prompt: Determine whether this compound has residual activity no lower than 90%: "O=C(c1cc2cc(O)ccc2[nH]1)c1cc2cc(O)ccc2[nH]1"
Response: YES

Prompt: Ok, now "COc1cc(Nc2c(C#N)cnc3cc(OCCCN4CCN(C)CC4)c(OC)cc23)c(Cl)cc1Cl"
Response: YES

Prompt: Ok, now "CS(=O)(=O)CCNCc1ccc(-c2ccc3ncnc(Nc4ccc(OCc5cccc(F)c5)c(Cl)c4)c3c2)o1"
Response: YES

Prompt: Ok, now "O=C1Nc2ccc(Br)cc2/C1=C\c1cc2c([nH]1)CCCC2"
Response: NO

Prompt: Ok, now "CC(C)(C)c1cc(C=C(C#N)C#N)cc(Br)c1O"
Response: YES

Prompt: Ok, now "c1ccc2c(-c3ccncc3)c[nH]c2c1"
Response: NO

Prompt: Ok, now "Cc1cccc(-c2nc(C(C)(C)C)[nH]c2-c2ccc3c(c2)OCO3)n1"
Response: NO

Prompt: Ok, now "COc1ccc2c(c1)/C(=C/c1cnc[nH]1)C(O)=N2"
Response: NO

Prompt: Ok, now "COc1cc2ncnc(Nc3ccc(Oc4ccccc4)cc3)c2cc1OC"
Response: NO

----------
molecular target: MET (human) (UniProt P08581); assay: radiometric filter-binding kinase assay, Kinase HotSpot; settings: compound 0.5 µM; ATP 10 µM
Sequence (P08581 whole entry, looked up): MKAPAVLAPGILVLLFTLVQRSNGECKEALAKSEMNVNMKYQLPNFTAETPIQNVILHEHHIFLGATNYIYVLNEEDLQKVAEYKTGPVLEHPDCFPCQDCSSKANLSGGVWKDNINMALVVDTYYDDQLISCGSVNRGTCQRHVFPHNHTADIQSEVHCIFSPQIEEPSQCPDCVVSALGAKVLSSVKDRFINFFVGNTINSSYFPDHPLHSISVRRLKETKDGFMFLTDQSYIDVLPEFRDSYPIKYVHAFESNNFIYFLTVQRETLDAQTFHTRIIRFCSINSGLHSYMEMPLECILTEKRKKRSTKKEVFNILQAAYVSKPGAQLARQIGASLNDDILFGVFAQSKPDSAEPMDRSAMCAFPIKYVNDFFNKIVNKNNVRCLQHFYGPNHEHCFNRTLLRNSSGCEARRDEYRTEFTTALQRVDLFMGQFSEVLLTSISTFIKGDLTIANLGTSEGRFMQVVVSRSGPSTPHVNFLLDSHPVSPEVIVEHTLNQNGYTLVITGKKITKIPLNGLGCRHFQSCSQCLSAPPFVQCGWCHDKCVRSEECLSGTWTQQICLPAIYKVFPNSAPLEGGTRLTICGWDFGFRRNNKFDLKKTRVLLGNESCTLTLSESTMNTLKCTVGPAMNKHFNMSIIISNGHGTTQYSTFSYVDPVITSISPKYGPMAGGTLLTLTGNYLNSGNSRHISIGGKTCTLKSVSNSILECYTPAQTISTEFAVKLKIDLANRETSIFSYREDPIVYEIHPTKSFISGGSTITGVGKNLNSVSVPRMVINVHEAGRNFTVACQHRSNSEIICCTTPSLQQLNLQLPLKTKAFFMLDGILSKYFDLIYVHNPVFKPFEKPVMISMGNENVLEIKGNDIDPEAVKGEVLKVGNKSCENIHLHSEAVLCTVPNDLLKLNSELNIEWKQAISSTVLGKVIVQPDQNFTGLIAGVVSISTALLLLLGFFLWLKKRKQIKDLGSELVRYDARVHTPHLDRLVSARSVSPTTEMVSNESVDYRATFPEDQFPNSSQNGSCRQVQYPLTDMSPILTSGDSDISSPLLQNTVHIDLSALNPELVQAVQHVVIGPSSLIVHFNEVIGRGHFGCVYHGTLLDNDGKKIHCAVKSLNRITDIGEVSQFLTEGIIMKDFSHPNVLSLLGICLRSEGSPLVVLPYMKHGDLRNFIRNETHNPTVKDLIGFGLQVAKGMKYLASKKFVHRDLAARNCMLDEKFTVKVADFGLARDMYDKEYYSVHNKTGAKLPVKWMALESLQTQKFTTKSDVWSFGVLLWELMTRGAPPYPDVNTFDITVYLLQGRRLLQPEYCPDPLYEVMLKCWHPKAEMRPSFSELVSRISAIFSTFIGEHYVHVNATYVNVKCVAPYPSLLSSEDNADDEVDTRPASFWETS
The entries below are paired with their reported residual activity.

Consider the worked cases shown below.
| compound_structure | residual activity |
| --- | --- |
| COc1ccc(C(=O)Nc2sc3c(c2C(N)=O)CCCC3)cc1OC | 82.8% |
| O=C1C(Cl)=C(N2C(=O)CCC2=O)C(=O)c2ccccc21 | 109% |
| C[C@@H]1CCN(C(=O)CC#N)C[C@@H]1N(C)c1ncnc2[nH]ccc12 | 86.7% |
| c1ccc2c(-c3ccncc3)c[nH]c2c1 | 91.4% |
| Fc1ccc(-c2nc3n(c2-c2ccncc2)CCS3)cc1 | 92.7% |
| N#C/C(=C\c1ccc(O)c(O)c1)C(=O)NCc1ccccc1 | 98.1% |
| COc1cc2ncnc(Nc3ccc(OCc4ccccc4)cc3)c2cc1OC | 98.9% |
| Cc1cncc2cccc(S(=O)(=O)N3CCCN(C(=O)CN)C[C@H]3C)c12 | 104% |
| CN(C)CCCn1cc(C2=C(c3c[nH]c4ccccc34)C(=O)NC2=O)c2ccccc21 | 102% |
| COc1ccc2c(c1)c(C1=C(c3c[nH]c4ccccc34)C(=O)NC1=O)cn2CCCN(C)C | 85.6% |

Prompt: Name the reported residual activity value associated with the molecule "O=C1Nc2ccc(Br)cc2/C1=C\c1cc2c([nH]1)CCCC2"
Response: 81.6%

Prompt: Ok, now "CS(=O)(=O)CCNCc1ccc(-c2ccc3ncnc(Nc4ccc(OCc5cccc(F)c5)c(Cl)c4)c3c2)o1"
Response: 84.1%

Prompt: Ok, now "COc1ccc(S(=O)(=O)N(CCO)c2ccccc2CN(C)C/C=C/c2ccc(Cl)cc2)cc1"
Response: 98.2%
